assay: self-splicing fitness, log relative to wild type (ln ratio); higher = more splicing; Tetrahymena group I intron in knt gene, E. coli kanamycin selection, DiMSum; sequences stand for … in CUCUCU…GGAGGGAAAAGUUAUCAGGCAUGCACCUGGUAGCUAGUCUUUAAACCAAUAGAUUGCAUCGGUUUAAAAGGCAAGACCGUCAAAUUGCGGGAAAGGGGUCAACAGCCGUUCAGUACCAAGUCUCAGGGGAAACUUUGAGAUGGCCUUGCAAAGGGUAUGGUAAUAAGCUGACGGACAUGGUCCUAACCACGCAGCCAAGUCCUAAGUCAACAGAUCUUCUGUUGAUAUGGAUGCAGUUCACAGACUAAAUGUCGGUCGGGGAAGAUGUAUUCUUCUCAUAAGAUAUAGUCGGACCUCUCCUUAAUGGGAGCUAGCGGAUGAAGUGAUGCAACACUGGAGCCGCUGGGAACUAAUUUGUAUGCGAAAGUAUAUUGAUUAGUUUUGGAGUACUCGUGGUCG; conditions: 37 °C;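 further: selection with 25 µg/mL kanamycin versus none on LB agar overnight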
Where self-splicing fitness (ln) equals or exceeds -1, the correct label is MET; where it does not, the label is NOT MET.

- Sequence Record: "ACUCAGCAAUAUUACGAUGG"
  Label Class: "MET"
- Sequence Record: "UAUAAGCAAUAUUACGGCCA"
  Label Class: "MET"
- Sequence Record: "CGAAAGCAAUAUUACGCAGA"
  Label Class: "MET"
- Sequence Record: "AACAAGCAAUAUUACGUUGG"
  Label Class: "NOT MET"
- Sequence Record: "UUCGAGCAAUAUUACGCCUU"
  Label Class: "NOT MET"
- Sequence Record: "UAGUAGCAAUAUUACGAUUA"
  Label Class: "MET"
- Sequence Record: "GGCUAGCAAUAUUACGGAAG"
  Label Class: "MET"
- Sequence Record: "AUUGAGCAAUAUUACGCCUU"
  Label Class: "NOT MET"
- Sequence Record: "CCAAAGCAAUAUUACGUCAU"
  Label Class: "NOT MET"
- Sequence Record: "AUCUAGCAAUAUUACGGACU"
  Label Class: "MET"
- Sequence Record: "AUAUAGCAAUAUUACGGUCA"
  Label Class: "MET"
- Sequence Record: "CGUGAGCAAUAUUACGGUAU"
  Label Class: "NOT MET"
- Sequence Record: "UUACAGCAAUAUUACGCAGG"
  Label Class: "NOT MET"
- Sequence Record: "UUUGAGCAAUAUUACGGACA"
  Label Class: "NOT MET"
- Sequence Record: "UUACAGCAAUAUUACGAUGU"
  Label Class: "NOT MET"
- Sequence Record: "CGUAAGCAAUAUUACGCCGC"
  Label Class: "NOT MET"
- Sequence Record: "UGAAAGCAAUAUUACGGGCA"
  Label Class: "MET"
- Sequence Record: "GAUAAGCAAUAUUACGGACG"
  Label Class: "MET"
- Sequence Record: "UCGAAGCAAUAUUACGAACG"
  Label Class: "MET"
- Sequence Record: "AGAAAGCAAUAUUACGUACU"
  Label Class: "MET"
- Sequence Record: "UCAGAGCAAUAUUACGGCCU"
  Label Class: "NOT MET"
- Sequence Record: "CUGGAGCAAUAUUACGUAGU"
  Label Class: "NOT MET"
- Sequence Record: "GCUUAGCAAUAUUACGACGG"
  Label Class: "MET"
- Sequence Record: "GCGUAGCAAUAUUACGUGCG"
  Label Class: "NOT MET"
- Sequence Record: "UCAUAGCAAUAUUACGGGAU"
  Label Class: "NOT MET"
- Sequence Record: "UUCCAGCAAUAUUACGGGUU"
  Label Class: "NOT MET"
- Sequence Record: "GGAGAGCAAUAUUACGCGUU"
  Label Class: "NOT MET"
- Sequence Record: "ACCCAGCAAUAUUACGAGAG"
  Label Class: "MET"
- Sequence Record: "GAUUAGCAAUAUUACGGCCC"
  Label Class: "MET"
- Sequence Record: "UACUAGCAAUAUUACGGCAA"
  Label Class: "MET"
- Sequence Record: "CGUAAGCAAUAUUACGUGGU"
  Label Class: "NOT MET"
- Sequence Record: "CAGUAGCAAUAUUACGGCAG"
  Label Class: "MET"
- Sequence Record: "GACUAGCAAUAUUACGUGGC"
  Label Class: "NOT MET"
- Sequence Record: "AGUCAGCAAUAUUACGUAAA"
  Label Class: "MET"
- Sequence Record: "UAGCAGCAAUAUUACGUAGC"
  Label Class: "NOT MET"
- Sequence Record: "GCCAAGCAAUAUUACGUUUU"
  Label Class: "NOT MET"
- Sequence Record: "GCACAGCAAUAUUACGCCCG"
  Label Class: "MET"
- Sequence Record: "CUUAAGCAAUAUUACGAUCU"
  Label Class: "NOT MET"
